assay: Binding affinity to displace radioligand [3H]naltrindole on Opioid receptor delta 1 in guinea pig membranes.
measure: Ki (nM)
Numbers only, in nM.

Example entries begin here.
>  <test smiles>
CN1CC[C@]23c4c5ccc(N)c4O[C@H]2[C@@H](O)C=C[C@H]3[C@H]1C5

>  <Ki, nM>
2400

$$$$
>  <test smiles>
CNc1ccc2c3c1O[C@H]1[C@@H](O)C=C[C@H]4[C@@H](C2)N(C)CC[C@@]341

>  <Ki, nM>
5700

$$$$
>  <test smiles>
CN1CC[C@]23c4c5ccc(Nc6ccccc6)c4O[C@H]2[C@@H](O)C=C[C@H]3[C@H]1C5

>  <Ki, nM>
1500

$$$$

Dear reader, for each entry below, please note its Ki.
1. CN1CC[C@]23c4c5ccc(NCc6ccccc6)c4O[C@H]2[C@@H](O)C=C[C@H]3[C@H]1C5
2. CN(C)c1ccc2c3c1O[C@H]1[C@@H](O)C=C[C@H]4[C@@H](C2)N(C)CC[C@@]341

1. 5500
2. 1600
